System: HS 578T breast
assay_name: NCI tumour cell line growth inhibition, 48 h
# TGI annotations
measure_name: TGI

* O=C(OC(CNc1cc(=O)n(Cc2ccccc2)c(=O)n1Cc1ccccc1)CN1CCCC1)c1ccccc1 (stereo unspecified) | > 100 µM
* O=C1NC(NNc2ccccc2)=N/C1=C\c1ccccc1O | > 100 µM
* CC(C)(C)[Si](C)(C)OCC1OC(n2ccc(N)nc2=O)C(O[Si](C)(C)C(C)(C)C)C1O[Si](C)(C)C(C)(C)C (stereo unspecified) | 7.89 µM
* COC(=O)c1ccc(C(=O)NC(Cc2ccc(Oc3cc(CC(NC(=O)c4ccccc4C(=O)OC)C(=O)OC)ccc3OC)cc2)C(=O)OC)cc1 (stereo unspecified) | 39.3 µM
* CC1=CC(C)C/C=C/C2C3OC3(C)C(C)C3C(Cc4c[nH]c5ccccc45)NC(=O)C23C(=O)C=CC(=O)C1O (stereo unspecified) | 56.5 µM
* O=C(C=P(c1ccccc1)(c1ccccc1)c1ccccc1)c1ccc(-c2cccc([N+](=O)[O-])c2)s1 | > 100 µM
* CCCCCCNC(=O)c1cc(NCc2cc(O)ccc2O)ccc1O | > 100 µM
* N#Cc1c(NN)n(C2OC(CO)C(O)C2O)c2ncnc(N)c12 (stereo unspecified) | 0.429 µM
* C/C(=N\NC(=S)N1CCCCC1)c1nc2ncccc2[nH]1 | > 100 µM
* CCCC(=O)n1[nH]c(=O)n(-c2ccc(Cl)cc2)c1=O | > 100 µM
* O=Cc1cn(CCCCCCCCCCCCn2cc(C=O)c3ccccc32)c2ccccc12 | > 100 µM
* CCCC[C@@H]1CCN2C[C@@H](O)[C@@H](O)[C@@H]2[C@H]1O | > 100 µM
* Cn1c2ccccc2c2c3c(c4c5cc(Br)ccc5n(C)c4c21)C(=O)N(O)C3=O | > 100 µM
* O=C(CNc1ccc(Cl)cc1)Nc1ccc(-c2nc3ccccc3s2)cc1 | 47.6 µM
* Oc1cn(-c2ccc(Cl)cc2)nc1-c1nnc(-c2ccccc2)o1 | 40.8 µM
* O=c1cc(N2CCOCC2)[nH]c(=O)n1-c1ccc(F)cc1 | > 100 µM
